- assayed.system: human renin (Homo sapiens)
- assay.details: In vitro test with pure human renin (angiotensin I production from human tetradecapeptide renin substrate, measured by RIA)
- Type: biochemical
- run.conditions: pure human renin, pH 7.4, three hours at 37° C. (less 4° C.), human tetradecapeptide substrate, angiotensin I by RIA; read-out: IC50 values (concentration of the inhibitor at which the enzymatic activity is inhibited by 50%)
Counter-ions that a name gives are not always drawn.
Each entry below carries its reported pIC50.
Schema: pIC50 number; meaning minus log10 of the concentration expressed in molar units.

COc1cc(CO[C@H]2CNCC[C@@H]2c2ccc(OCCCC3CCCCC3)nc2)c(OC)c2ccccc12 (relative stereo) = 9.00
OC[C@@H]1CNC[C@H](OCc2ccc3ccccc3c2)[C@H]1c1ccc(OCCCOCc2ccccc2)cc1 (relative stereo) [HH, hydrochloride] = 8.22
COc1cc(CO[C@H]2CNC[C@@H](O)[C@@H]2c2ccc(OCCCOCc3ccccc3)cc2)c(OC)c2ccccc12 (racemic) = 8.70

Need pIC50 of COc1ccc(CO[C@H]2CNC[C@@H](O)[C@@H]2c2ccc(OCCCOCc3ccccc3)cc2)cc1 (racemic) , thanks.
9.00

Cool, now c1ccc(COCCCOc2ccc([C@H]3[C@H](Cn4cncn4)CNC[C@@H]3OCc3ccc4ccccc4c3)cc2)cc1 (relative stereo) [NN, hydrochloride]
9.00

Would you mind doing `COc1cc(CO[C@H]2CNC[C@@H](OCc3cc(OC)c(OC)c(OC)c3)[C@@H]2c2ccc(OCCCOCc3ccccc3)cc2)cc(OC)c1OC` as well?
9.30

---

- assayed.system: human renin (Homo sapiens)
- assay.details: In vitro test with pure human renin (angiotensin I production from human tetradecapeptide renin substrate, measured by RIA)
- Type: biochemical
- run.conditions: pure human renin, pH 7.4, three hours at 37° C. (less 4° C.), human tetradecapeptide substrate, angiotensin I by RIA; read-out: IC50 values (concentration of the inhibitor at which the enzymatic activity is inhibited by 50%)
Counter-ions that a name gives are not always drawn.
Listed next: entries and their corresponding IC50.
Answer format: numeric, nM implied, no suffix.

O=C(Cc1ccc2ccccc2c1)[C@H]1CNCC[C@@H]1c1ccc(OCCCOCc2ccccc2)cc1 (relative stereo) [R] = 3
COc1ccccc1COc1cc(CO[C@H]2CNCC[C@@H]2c2ccc(OCCOC(=O)c3ccccc3)cc2)cc2ccccc12 (racemic) [C, hydrochloride] = 70
COc1ccccc1COCCCOc1ccc([C@H]2CCNC[C@@H]2OCc2ccc3cccnc3c2)cc1 (racemic) [OO] = 6
CN1CCN(CCO[C@@H]2CNC[C@H](OCc3ccc4ccccc4c3)[C@H]2c2ccc(OCCCOCc3ccccc3)cc2)CC1 (racemic) [X] = 3
Fc1ccc([C@H]2CCNC[C@@H]2OCc2cc(OCc3ccccc3)c3ccccc3c2)cc1 [RR] = 270
OCC(O)COc1ccc2ccc(CO[C@H]3CNCC[C@@H]3c3ccc(OCCCOCc4ccccc4)cc3)cc2c1 (mixture of isomers) [O] = 17
OCC(O)COCCOc1ccc2ccc(CO[C@H]3CNCC[C@@H]3c3ccc(OCCCOCc4ccccc4)cc3)cc2c1 (mixture of isomers) [P] = 6
OCCOCc1ccc2ccc(CO[C@H]3CNCC[C@@H]3c3ccc(OCCCOCc4ccccc4)cc3)cc2c1 (racemic) [PP] = 2

Reported IC50 for c1ccc(-c2cc(COc3ccc([C@H]4CCNC[C@@H]4OCc4ccc5ccccc5c4)cc3)on2)cc1 (racemic) [F, trifluoroacetate] : what is it?
57

Record: COc1ccccc1COCCCOc1ccc([C@H]2CCNC[C@@H]2OCc2ccc3c(c2)NCCC3)cc1 (racemic) [YY]
0.5

Param item: CN(C)CCN(C)C[C@@H]1CNC[C@H](OCc2ccc3ccccc3c2)[C@H]1c1ccc(OCCCOCc2ccccc2)cc1 (relative stereo) [II]
2

Cool, now Fc1ccc([C@@H]2CCNC[C@H]2OCc2cc(OCc3ccccc3)c3ccccc3c2)cc1 [SS]
132000

Request: O=C1NCCN1C[C@@H]1CNC[C@H](OCc2ccc3ccccc3c2)[C@H]1c1ccc(OCCCOCc2ccccc2)cc1 (relative stereo) [VV]
2

Same lookup for c1ccc(SCCCc2ccc([C@H]3CCNC[C@@H]3OCc3ccc4ccccc4c3)cc2)cc1 (racemic) [G] , please.
33

Next up: OCC(O)COCc1ccc2ccc(CO[C@H]3CNCC[C@@H]3c3ccc(OCCCOCc4ccccc4)cc3)cc2c1 (mixture of isomers) [T]
5

What do you have for OCC(O)COCc1ccc2cc(CO[C@H]3CNCC[C@@H]3c3ccc(OCCCOCc4ccccc4)cc3)ccc2c1 (mixture of isomers) [U] ?
24

Entry to check: COc1ccccc1COCCCOc1ccc([C@H]2CCNC[C@@H]2OCc2ccc3ccncc3c2)cc1 (racemic) [XX]
0.8

Also CCC[C@@H]1CNC[C@H](OCc2cc(OCc3ccccc3)c3ccccc3c2)[C@H]1c1ccc(F)cc1 (racemic) [Compound I] , if possible.
317

---

- assayed.system: human renin (Homo sapiens, UniProt P00797)
- Sequence (P00797 67-406): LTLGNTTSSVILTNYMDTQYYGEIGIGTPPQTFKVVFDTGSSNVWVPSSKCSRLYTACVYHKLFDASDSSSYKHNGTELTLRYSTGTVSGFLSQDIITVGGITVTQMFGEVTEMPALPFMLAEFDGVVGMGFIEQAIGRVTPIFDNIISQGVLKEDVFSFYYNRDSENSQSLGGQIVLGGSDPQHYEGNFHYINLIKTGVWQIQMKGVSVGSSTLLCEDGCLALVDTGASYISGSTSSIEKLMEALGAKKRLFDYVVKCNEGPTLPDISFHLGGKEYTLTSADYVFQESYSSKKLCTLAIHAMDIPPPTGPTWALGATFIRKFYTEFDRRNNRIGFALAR
- assay.details: In vitro test with pure human renin (angiotensin I production from human tetradecapeptide renin substrate, measured by RIA)
- Assay type: biochemical
- run.conditions: pure human renin, pH 7.4, three hours at 37° C. (less 4° C.), human tetradecapeptide substrate, angiotensin I by RIA; read-out: IC50 values (concentration of the inhibitor at which the enzymatic activity is inhibited by 50%)
Counter-ions that a name gives are not always drawn.
value.type: pIC50
# pIC50 = -log10(concentration in molar units)

Examples from the recorded data:
c1ccc(COCCCOc2ccc([C@H]3CCNC[C@@H]3OCc3ccc4ccc(OCCN5CCOCC5)cc4c3)cc2)cc1 (racemic) = 7.92
COc1ccccc1COCCCOc1ccc([C@H]2CCNC[C@@H]2OCc2cc(OC)c3ccccc3c2OC)cn1 (relative stereo) = 9.30
CN1CCN(CCCNC(=O)OC[C@@H]2CNC[C@H](OCc3ccc4ccccc4c3)[C@H]2c2ccc(OCCCOCc3ccccc3)cc2)CC1 (relative stereo) = 9.00
COc1ccccc1COCCCOc1ccc([C@H]2CCNC[C@@H]2OCc2ccc3ccc(=O)[nH]c3c2)cc1 (racemic) = 8.05
COc1ccc(CO[C@H]2CNC[C@@H](OCc3ccc(OC)cc3)[C@@H]2c2ccc(OCCCOCc3ccccc3)cc2)cc1 = 9.00
O=C(Cc1ccc2ccccc2c1)[C@H]1CNC[C@@H](COCCN2CCOCC2)[C@@H]1c1ccc(OCCCOCc2ccccc2)cc1 (racemic) = 7.92

Please state recorded pIC50 (tested on human renin (Homo sapiens, UniProt P00797)) of c1ccc(COCCCOc2ccc([C@H]3[C@H](COCCN4CCOCC4)CNC[C@@H]3OCc3ccc4ccccc4c3)cc2)cc1 (relative stereo)
8.52

Again, but for CN1CCN(CCOc2ccc3ccc(CO[C@H]4CNCC[C@@H]4c4ccc(OCCCOCc5ccccc5)cc4)cc3c2)CC1 (racemic)
8.30

Same lookup for CCN(CC)C[C@@H]1CNC[C@H](OCc2ccc3ccccc3c2)[C@H]1c1ccc(OCCCOCc2ccccc2)cc1 (relative stereo) , please.
8.70

Okay, and OCCCCO[C@@H]1CNC[C@H](OCc2ccc3ccccc3c2)[C@H]1c1ccc(OCCCOCc2ccccc2)cc1 (racemic) ?
8.70

Entry Oc1cc(CO[C@H]2CNCC[C@@H]2c2ccc(CCSc3nc4ccccc4s3)cc2)cc2ccccc12 (racemic) please
7.14

Now consider O=C(OCCOc1ccc([C@H]2CCNC[C@@H]2OCc2ccc3ccccc3c2)cc1)c1cccs1 (racemic) [A, hydrochloride] and answer again.
7.96

Further, for COc1ccccc1OCCCOc1ccc([C@H]2CCNC[C@@H]2OCc2cc(OC)c3ccccc3c2OC)cc1 (relative stereo) ?
9.00

Another compound: O=C(OCCOc1ccc([C@H]2CCNC[C@@H]2OCc2ccc3ccccc3c2)cc1)c1ccccc1Cl (relative stereo) [B, hydrochloride]
7.59
